All figures here come from patent US20200239555A1.

Target desc: T1, native human ApoC3 (human, UniProt P02656 21-99)
T1 construct: also called nhuApoC3; native huApoC3
T1 sequence (P02656 21-99): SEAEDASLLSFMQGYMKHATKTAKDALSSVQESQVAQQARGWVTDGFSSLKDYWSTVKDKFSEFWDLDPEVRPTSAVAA
Test description: SPR, ApoC3 over captured IgG1
Consider the following binders and their measured KD (nM) pH5.5/pH7.4 readings.
# respond with the number and nothing more

Field: example entries. Status: answers known.
| Binder | KD (nM) pH5.5/pH7.4 |
| --- | --- |
| mAb7 (antibody, V domains shown, Produced as full length IgG1 (kappa) in ExpiCHO-S cells; also called humanized anti-ApoC3 antibody mAb7) VH: QLVESGGGLVQPGGSLRLSCAASGFTFSTYSMRWVRQAPGKGLEWVSSIHTGGGGTAYRDSVKGRFTISRDNAKNTLYLQMNNLRAEDTAIYYCVIAGYSDWGQGTLVTVSS VL: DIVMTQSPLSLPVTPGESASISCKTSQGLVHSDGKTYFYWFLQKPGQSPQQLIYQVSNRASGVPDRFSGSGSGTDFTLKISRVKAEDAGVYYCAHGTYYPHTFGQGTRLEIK | 2.36 |
| mAb11 (antibody, IgG1, V domains shown, Produced as full length IgG1 (kappa) in ExpiCHO-S cells; also called humanized anti-ApoC3 antibody mAb11) VH: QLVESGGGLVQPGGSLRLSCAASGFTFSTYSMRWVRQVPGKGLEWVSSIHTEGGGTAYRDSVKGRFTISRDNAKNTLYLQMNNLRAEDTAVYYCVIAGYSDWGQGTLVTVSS VL: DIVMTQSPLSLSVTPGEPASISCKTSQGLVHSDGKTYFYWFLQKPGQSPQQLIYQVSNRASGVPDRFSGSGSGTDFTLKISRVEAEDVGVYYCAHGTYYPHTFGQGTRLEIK | 3.9 |
| mAb19 (antibody, IgG1, V domains shown, Produced as full length IgG1 (kappa) in ExpiCHO-S cells; also called humanized anti-ApoC3 antibody mAb19) VH: QLVESGGGLVQPGGSLRLSCAASGFTFSTYSMRWVRQAPGKGLEWVSSIHTDAGGTAYRDSVKGRFTISRDNAKNTLYLQMNNLRPEDTAVYYCVIAGYSDWGQGTLVTVSS VL: DIVMTQSPGSLSVTPGEPASISCKTSQGLVHSGGKTYFYWFLQKPGQSPQQLIYQVSNRASGVPDRFTGSGSGTDFTLKISGVEAEDAGVYYCAQGTYYPHTFGQGTRLEIK | 4.42 |

Let's switch to this binder now.
Need KD (nM) pH5.5/pH7.4, item mAb2 (antibody, IgG1, V domains shown, Produced as full length IgG1 (kappa) in ExpiCHO-S cells; also called humanized anti-ApoC3 antibody mAb2) VH: QLVESGGGLVQPGGSLRLSCAASGFTFGTYSMRWVRQVPGKGLEWVSSIHTEGGGTAYRDSVKGRFTISRDNAKNTLYLQMNSLRAEDTAIYYCVIAGYSDWGQGTLVTVSS VL: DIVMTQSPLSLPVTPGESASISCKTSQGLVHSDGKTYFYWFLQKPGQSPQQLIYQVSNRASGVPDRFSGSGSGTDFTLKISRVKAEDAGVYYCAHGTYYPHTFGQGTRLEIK
2.82
